Tested on: 3T3-L1 pre adipocytes
Assay: Cell toxicity of compounds at various doses
Type: cell-based
Settings: 50 μM, Day 2, 3T3-L1 pre adipocytes
MEASURED_ENDPOINT: Cell toxicity

Some entries whose results are on file:
[
  {
    "COMPOUND": "CC1(C)OB(c2ccc(NC(C#N)c3cc(-c4ccccc4)on3)cc2)OC1(C)C (centres unmarked) [Compound 2]",
    "MEASURED_ENDPOINT": "Cell toxicity",
    "RECORDED_RESULT": "95-100%"
  },
  {
    "COMPOUND": "N#CC(Nc1ccc([B-](F)(F)F)cc1)c1cc(-c2ccc(F)cc2)on1 (centres unmarked) [Compound 4]",
    "MEASURED_ENDPOINT": "Cell toxicity",
    "RECORDED_RESULT": "90-95%"
  },
  {
    "COMPOUND": "N#CC(Nc1ccc([B-](F)(F)F)cc1)c1ccco1 (centres unmarked) [Compound 5]",
    "MEASURED_ENDPOINT": "Cell toxicity",
    "RECORDED_RESULT": "90-95%"
  },
  {
    "COMPOUND": "Cc1cc(C(C#N)Nc2ccc(B3OC(C)(C)C(C)(C)O3)cc2)no1 (centres unmarked) [Compound 3]",
    "MEASURED_ENDPOINT": "Cell toxicity",
    "RECORDED_RESULT": "90-95%"
  }
]

--- query ---
IN: Record request: Cell toxicity value, item CC1(C)OB(c2ccc(NC(C#N)c3cc(-c4ccc(F)cc4)on3)cc2)OC1(C)C (centres unmarked) [Compound 1]
OUT: 90-95%
